Assay: Prolonged piperidine treatment of VKDGYI peptide resin (aspartimide formation, Asp-Gly motif)
Conditions: VKDGYI; Oxyma Pure -
PROPERTY LABEL: piperidides [%] (%)

[a] CCC(CC)(CC)OC(=O)C[C@H](NC(=O)OCC1c2ccccc2-c2ccccc21)C(=O)O [Epe]
[b] CCCC(CCC)(CCC)OC(=O)C[C@H](NC(=O)OCC1c2ccccc2-c2ccccc21)C(=O)O [Php]
[c] CC(C)(C)OC(=O)C[C@H](NC(=O)OCC1c2ccccc2-c2ccccc21)C(=O)O [tBu, Fmoc-Asp(OtBu)-OH, reference compound]
[d] CCC(C)(CC)OC(=O)C[C@H](NC(=O)OCC1c2ccccc2-c2ccccc21)C(=O)O [Mpe, Fmoc-Asp(OMpe)-OH, reference compound]
Task item: Which order do the above compounds take when sorted by rising piperidides [%]? Smallest first. Record the ranking as a list of labels in the requested order.
Reply: b, a, d, c

---

Experiment: Prolonged treatment of VKDGYI peptide resin with 1 M Oxyma Pure and 20 % piperidine (aspartimide formation)
Type: physicochemical
Details: VKDGYI; Oxyma Pure +: 1 M Oxyma Pure and 20 % piperidine in dimethylformamide, 18 hours
PROPERTY LABEL: target [%] (%)

molecule=CCC(CC)(CC)OC(=O)C[C@H](NC(=O)OCC1c2ccccc2-c2ccccc21)C(=O)O property_label="target [%]" value_reported=85.7
molecule=CCCC(CCC)(CCC)OC(=O)C[C@H](NC(=O)OCC1c2ccccc2-c2ccccc21)C(=O)O property_label="target [%]" value_reported=95.4
molecule="CC(C)(C)OC(=O)C[C@H](NC(=O)OCC1c2ccccc2-c2ccccc21)C(=O)O [tBu, Fmoc-Asp(OtBu)-OH, reference compound]" property_label="target [%]" value_reported=61.1
molecule="CCC(C)(CC)OC(=O)C[C@H](NC(=O)OCC1c2ccccc2-c2ccccc21)C(=O)O [Mpe, Fmoc-Asp(OMpe)-OH, reference compound]" property_label="target [%]" value_reported=84.2

---

Experiment: Prolonged piperidine treatment of VKDGYI peptide resin (aspartimide formation, Asp-Gly motif)
Conditions: VKDGYI; Oxyma Pure -: 20 % piperidine only, 18 hours (as Table 1)
PROPERTY LABEL: target [%] (%)

compound=CCC(CC)(CC)OC(=O)C[C@H](NC(=O)OCC1c2ccccc2-c2ccccc21)C(=O)O value_reported=64.4

[I] CC(C)(C)OC(=O)C[C@H](NC(=O)OCC1c2ccccc2-c2ccccc21)C(=O)O [tBu, Fmoc-Asp(OtBu)-OH, reference compound]
[II] CCCC(CCC)(CCC)OC(=O)C[C@H](NC(=O)OCC1c2ccccc2-c2ccccc21)C(=O)O
[III] CCC(C)(CC)OC(=O)C[C@H](NC(=O)OCC1c2ccccc2-c2ccccc21)C(=O)O [Mpe, Fmoc-Asp(OMpe)-OH, reference compound]
Task item: Ranking field: target [%]; order: falling. Provide the labels, sequenced as the question asks.
Reply: II, III, I

---

Assay: Prolonged piperidine treatment at 60°C of VKDRYI peptide resin (aspartimide formation)
Format: physicochemical
Settings: target peptide VKDRYI; 20% piperidine in DMF at 60°C over 200 minutes; 100 Fmoc removal cycles
PROPERTY LABEL: target [%] (%)

[P] CCCC(CCC)(CCC)OC(=O)C[C@H](NC(=O)OCC1c2ccccc2-c2ccccc21)C(=O)O [Php]
[Q] CC(C)(C)OC(=O)C[C@H](NC(=O)OCC1c2ccccc2-c2ccccc21)C(=O)O [tBu, Fmoc-Asp(OtBu)-OH, reference compound]
Task item: Which of these two has the smaller recorded target [%]: P or Q ? Kindly state the label of the option you pick.
Reply: Q

[a] CCC(C)(CC)OC(=O)C[C@H](NC(=O)OCC1c2ccccc2-c2ccccc21)C(=O)O [Mpe, Fmoc-Asp(OMpe)-OH, reference compound]
[b] CCCCC(CCCC)(CCCC)OC(=O)C[C@H](NC(=O)OCC1c2ccccc2-c2ccccc21)C(=O)O [Bno]
Task item: Hello, I am sorting some records. Could you say if a or b has the smaller target [%] value? Response format: the label of the selected entry.
Reply: a
(a: 63.5%, b: 90.8%)
